# tested.on: HLA-A*02:01 (Homo sapiens, UniProt P04439, D140Y/D185E/D98H/E176V/E277Q/G131W/G231S/I119V/I121R/I166T/I218V/L300P/L318F/N151K/N90K/P208A/P217A/Q86G/Q94H/R138H/R169H/T345S)
# measurement.description: MHC binding assay (UV-ligand exchange, beta2m ELISA, peptide exchange yield)
# condition.details: binding to HLA-A*02:01 ranged by peptide exchange yield, β2m ELISA
parameter.measured: Peptide exchange (MHC class I binding score)

Query block: Param item = 76 (VLADDHLIEV; listed as Homo sapiens) [compound 76] ; retrieve measured Peptide exchange (MHC class I binding score).
Result block: ++ (≥20% = ++)

Query block: Param item = 51 (NLWPMILTL; listed as Homo sapiens) [compound 51] ; retrieve measured Peptide exchange (MHC class I binding score).
Result block: +++ (≥50 = +++)

Query block: Param item = 105 (ALADLDELLIRA; listed as Homo sapiens) [compound 105] ; retrieve measured Peptide exchange (MHC class I binding score).
Result block: +++ (≥50 = +++)

Query block: Param item = 78 (ALLDTVVQA; listed as Homo sapiens) [compound 78] ; retrieve measured Peptide exchange (MHC class I binding score).
Result block: ++ (≥20% = ++)

As a next step, examine the substance that follows.
Query block: Param item = 37 (VLAPVILML; listed as Homo sapiens) [compound 37] ; retrieve measured Peptide exchange (MHC class I binding score).
Result block: ++ (≥20% = ++)

---

# tested.on: HLA-A*02:01 (Homo sapiens, UniProt P04439, D140Y/D185E/D98H/E176V/E277Q/G131W/G231S/I119V/I121R/I166T/I218V/L300P/L318F/N151K/N90K/P208A/P217A/Q86G/Q94H/R138H/R169H/T345S)
# measurement.description: MHC binding assay (UV-ligand exchange, beta2m ELISA, peptide exchange yield)
# condition.details: binding to HLA-A*02:01 ranged by peptide exchange yield, β2m ELISA
parameter.measured: Peptide exchange (MHC class I binding score)

# example entries with known answers
Query block: Param item = 28 (FIADLVVGL; listed as Homo sapiens) [compound 28] ; retrieve measured Peptide exchange (MHC class I binding score).
Result block: ++ (≥20% = ++)

Query block: Param item = 44 (ALFSFVTAL; listed as Homo sapiens) [compound 44] ; retrieve measured Peptide exchange (MHC class I binding score).
Result block: +++ (≥50 = +++)

Query block: Param item = 65 (IIYGGSVTGA; listed as Homo sapiens) [compound 65] ; retrieve measured Peptide exchange (MHC class I binding score).
Result block: ++ (≥20% = ++)

Query block: Param item = 74 (GLFHKQVTV; listed as Homo sapiens) [compound 74] ; retrieve measured Peptide exchange (MHC class I binding score).
Result block: +++ (≥50 = +++)

Query block: Param item = 41 (GLLKTLQKL; listed as Homo sapiens) [compound 41] ; retrieve measured Peptide exchange (MHC class I binding score).
Result block: ++ (≥20% = ++)

---
Query block: Param item = 114 (ALAVNISAA; listed as Homo sapiens) [compound 114] ; retrieve measured Peptide exchange (MHC class I binding score).
Result block: +++ (≥50 = +++)

Query block: Param item = 13 (KIMAQILTV; listed as Homo sapiens) [compound 13] ; retrieve measured Peptide exchange (MHC class I binding score).
Result block: +++ (≥50 = +++)

Query block: Param item = 31 (VLFGLDPAVIKV; listed as Homo sapiens) [compound 31] ; retrieve measured Peptide exchange (MHC class I binding score).
Result block: +++ (≥50 = +++)

Query block: Param item = 30 (QLFYTKIFL; listed as Homo sapiens) [compound 30] ; retrieve measured Peptide exchange (MHC class I binding score).
Result block: ++ (≥20% = ++)

Query block: Param item = 34 (ELNNQNFYL; listed as Homo sapiens) [compound 34] ; retrieve measured Peptide exchange (MHC class I binding score).
Result block: +++ (≥50 = +++)
